Assay: Plasma pharmacokinetics in a patient after IV infusion of VX-970
Format: in vivo, human
Settings: human, plasma, iv, 60 mg/m^2
READOUT_LABEL: Cmax

In: Can you share its Cmax? I mean this compound: CNCc1ccc(-c2cc(-c3nc(-c4ccc(S(=O)(=O)C(C)C)cc4)cnc3N)on2)cc1 [VX-970]
Out: 343 ng/mL

---

Test: Stability of VX-970 in human plasma
Assay type: in vitro ADME
Details: human, plasma
READOUT_LABEL: recovery at 8 months

In: Can you share its recovery at 8 months? I mean this compound: CNCc1ccc(-c2cc(-c3nc(-c4ccc(S(=O)(=O)C(C)C)cc4)cnc3N)on2)cc1 [VX-970]
Out: 92.2 to 100%
